Where these numbers come from: paper PMC6919601

Biological target: DPAP1 (Plasmodium falciparum)
Experiment: primary screen, percent inhibition; higher = more effect of the substance
Set-up: species or system P. falciparum D10 trophozoite lysates; single well
Screen size: about 110,000 compounds; about 230 (0.21%) showed an effect of 50% or more. The full list was thinned out, with strong results kept by preference.
endpoint label: % Inhibition @ 10 uM (%)
Give bare numbers, in %.

Cc1cc(C)c2c(n1)sc1c(=O)oc(C)nc12 : -0.13
CN(C)c1ccc(-c2c(C#N)c(S)nc3c2C(=O)CC(C)(C)C3)cc1 : -2.81
CC1(C)CC2=NC3=C(C(=O)CC(C)(C)C3)C(c3cc(Cl)c(O)c(Cl)c3)C2=C(O)C1 (centres unmarked) : 13.2
COc1ccccc1CNC(=O)[C@H](CCSC)N1Cc2ccccc2C1=O : 2.93
CC1(C)CC2=NCC(=O)NC2=C(O)C1 : 59.8
O=c1oc2c3c(c(Cl)cc2c2c1CCCC2)OCN(Cc1ccco1)C3 : 4.13
N#CCCN1CCN(C2=NC(=O)/C(=C\c3ccc(-c4ccc(Cl)cc4)o3)S2)CC1 : -2.8
CCOC(=O)c1c(-c2ccc(F)cc2)csc1NC(=O)c1c(-c2ccccc2)noc1C : 0.64

Give measured % Inhibition @ 10 uM for every item shown.
1. C=CC/N=C/C1=C(O)CC(C)(C)CC1=O
2. Cc1cc2ccccc2n1-c1ccc(C(=O)N2CCCCCC2)s1

-3.06
3.12

# return recorded % Inhibition @ 10 uM for entry O=C(CCc1nnc2n(CCc3ccccc3)c(=O)c3ccccc3n12)N1CCOCC1
0.981

---

Target: DPAP1 (Plasmodium falciparum, UniProt Q8IIJ9)
Sequence (Q8IIJ9 whole entry, looked up): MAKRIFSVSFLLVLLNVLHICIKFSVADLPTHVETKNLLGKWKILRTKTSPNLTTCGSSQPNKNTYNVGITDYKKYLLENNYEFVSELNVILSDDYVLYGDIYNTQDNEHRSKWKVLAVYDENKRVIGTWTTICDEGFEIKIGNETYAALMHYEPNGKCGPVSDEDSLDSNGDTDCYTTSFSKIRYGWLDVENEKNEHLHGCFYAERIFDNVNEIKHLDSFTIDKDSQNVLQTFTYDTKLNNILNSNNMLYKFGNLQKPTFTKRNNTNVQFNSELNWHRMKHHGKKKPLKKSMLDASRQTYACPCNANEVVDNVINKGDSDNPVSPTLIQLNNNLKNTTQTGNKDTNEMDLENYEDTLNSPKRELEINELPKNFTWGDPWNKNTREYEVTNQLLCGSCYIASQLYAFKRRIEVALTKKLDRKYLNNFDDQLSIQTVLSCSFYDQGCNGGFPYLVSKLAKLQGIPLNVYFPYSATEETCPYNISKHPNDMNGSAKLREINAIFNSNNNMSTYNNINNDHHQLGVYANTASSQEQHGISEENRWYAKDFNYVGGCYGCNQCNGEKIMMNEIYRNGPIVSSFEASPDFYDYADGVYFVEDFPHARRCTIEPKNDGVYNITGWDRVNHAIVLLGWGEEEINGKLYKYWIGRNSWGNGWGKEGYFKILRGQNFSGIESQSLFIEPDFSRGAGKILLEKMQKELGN
Experiment: primary screen, percent inhibition; higher = more effect of the substance;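 further: 30 min substrate incubation versus DMSO and 10 µM JCP410 controls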
Parameters: species or system P. falciparum D10 trophozoite lysates; single well
Among all 110,000 compounds or so, about 230 (0.21%) showed an effect of 50% or more. Shown is part of a subset that was picked to be rich in strong results.
So I've got a bunch of compounds here, and I need their % Inhibition @ 10 uM values.
One number for each entry, in %.

Give measured % Inhibition @ 10 uM for every item shown.
1. Cc1cc(C)c(S(=O)(=O)N2CCN(c3ccc(F)cc3)CC2)c(C)c1
2. CCOC(=O)/C=C(\C)N1N=C2c3ccc(OC)cc3CCC2C1c1cccc(F)c1 (stereo not shown)
3. CCOC(=O)/C=C(\C)N1N=C2c3ccc(OC)cc3CCC2C1c1ccc(OC)cc1 (stereo not shown)
4. COc1ccc(C2C3CCc4ccc(OC)cc4C3=NN2/C(C)=C/C(C)=O)cc1 (stereo not shown)
5. COc1ccc(C2C3CCc4cc(OC)ccc4C3=NN2/C(C)=C/C(C)=O)cc1 (stereo not shown)
6. CS(=O)(=O)c1sc2nc(-c3ccc(Br)cc3)cc(-c3ccccc3)c2c1N
7. O=C1c2ccccc2C(=O)N1CNc1ccc(Cl)c(Cl)c1

1: -6.86; 2: 73.1; 3: 60.6; 4: 22.9; 5: 58.5; 6: -1.93; 7: -1.17

---

Biological target: DPAP1 (Plasmodium falciparum)
Assay: primary screen, percent inhibition; higher = more effect of the substance
Parameters: species or system P. falciparum D10 trophozoite lysates; single well
Experimental: HTS was performed in black 384-well plates. The first and last two columns of each plate contained our negative (DMSO) and positive (10 μM JCP410) controls, and the 20 central columns the test compounds at 10 μM. […] After 30 min, the reaction was quenched with 20 μL of 0.5 M acetic acid, and the fluorescent intensity measured at 523 nm (λex = 492 nm) using an Analyst HT multimode plate reader (Molecular Devices).
Screen size: about 110,000 compounds; about 230 (0.21%) showed an effect of 50% or more. Many of the other results were omitted from the sample, so strong results are more common in it than they were.
So I've got a bunch of compounds here, and I need their % Inhibition @ 10 uM values.
Numbers only, in %.

Solved entries (count: 3):
CCOC(=O)/C(C#N)=C/c1c(Oc2cccc(C)c2C)nc2ccccn2c1=O : 77.8
CN1CCN(C(=O)Cn2nc(-c3ccc(Cl)cc3)c3ccccc3c2=O)CC1 : 2.95
Cc1ccc(CNC(=O)c2cc3c(s2)-c2ccccc2S(=O)(=O)C3)cc1 : -0.72

Give measured % Inhibition @ 10 uM for every item shown.
1. Cc1cc(C)c2oc(C(=O)Nc3nnc(C)s3)cc(=O)c2c1
2. Cc1[nH]c2ccccc2c1CCNC(=S)NC(C)(C)C
3. COc1cccc(C(=O)Nc2ccc(C(C)C)cc2)c1
4. Cn1c(SCC(=O)NCCc2ccccc2)nc2c1c(=O)n(Cc1ccccc1Cl)c(=O)n2C
5. O=C(Nc1cnn(Cc2ccccc2)c1)C1CCCC1
6. COC(=O)/C(C#N)=C/c1c(Oc2cccc(C)c2C)nc2ccccn2c1=O

-3.24
-0.431
-1.25
3.81
-1.78
-5.1

Give measured % Inhibition @ 10 uM for every item shown.
1. O=C(NC1CCCCC1)C1CCCN(S(=O)(=O)N2CCCCC2)C1 (stereo not shown)
2. Cc1ccc(C(C)C)c(Oc2nc3ccccn3c(=O)c2/C=C(\C#N)C(=O)NCc2ccccc2)c1
3. CCCC(=O)n1nc2c3c(cccc31)C(=O)c1ccccc1-2

1. -4.99
2. -1.43
3. -2.75

Give measured % Inhibition @ 10 uM for every item shown.
1. Cc1cc(C)c2oc(C(=O)Nc3nnc(C(C)C)s3)cc(=O)c2c1
2. CCOC(=O)/C(C#N)=C/c1c(Oc2ccccc2OC)nc2ccccn2c1=O
3. CC1=C(C#N)C(c2ccccc2)C2=C(O)CC(C)(C)CC2=N1 (stereo not shown)
4. NC(=O)/C=C/C(=O)Nc1ccccc1

1: 53.6; 2: -5.1; 3: 2.41; 4: -3.13

---

Target: DPAP1 (Plasmodium falciparum)
Test: primary screen, percent inhibition; higher = more effect of the substance
Set-up: species or system P. falciparum D10 trophozoite lysates; single well
In all, about 110,000 compounds went through this assay and about 230 (0.21%) showed an effect of 50% or more. This is one part of a sample in which strong results are shown more often than they occur.
Binary call on % Inhibition @ 10 uM: y from 50% upward, n beneath that.

Hi, just wondering whether CCS(=O)(=O)c1nc(S(=O)(=O)c2ccc(Cl)cc2)c(N2CCOCC2)s1 shows % Inhibition @ 10 uM of 50% or higher.
n

---

So I've got a bunch of compounds here, and I need their % Inhibition @ 10 uM values.
Molecular target: DPAP1 (Plasmodium falciparum, UniProt Q8IIJ9)
Assay: primary screen, percent inhibition; higher = more effect of the substance;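 further: 30 min substrate incubation versus DMSO and 10 µM JCP410 controls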
Set-up: species or system P. falciparum D10 trophozoite lysates; single well
In all, about 110,000 compounds went through this assay and about 230 (0.21%) showed an effect of 50% or more. What follows is part of a selection rich in strong results, with near analogues and random picks from the rest.
Answers are plain numbers, in %.

Solved entries (count: 2):
COc1cccc(C2=NS(=O)(=O)N(C)C(C(=O)N3CCCC3)=C2)c1 : 3.92
COc1ccccc1-c1coc2cc(OCC(=O)O)ccc2c1=O : -1.92

Give measured % Inhibition @ 10 uM for every item shown.
1. COc1ccc(-c2cc(C(F)(F)F)nc(SCC(=O)N3CCOCC3)n2)cc1
2. COc1ccc2nc3sc(C(=O)NCCN(C)Cc4ccccc4)cc3cc2c1
3. COc1ccc(-c2coc3cc(OC)ccc3c2=O)c(O)c1
4. COc1ccc2c(COc3ccc4c(=O)c(-c5ccccc5)coc4c3)cc(=O)oc2c1
5. N#C/C(=C\c1c(Oc2ccccc2Cl)nc2ccccn2c1=O)c1nc2ccccc2[nH]1
6. Cc1cccc(Oc2nc3ccccn3c(=O)c2/C=C(\C#N)c2nc3ccccc3[nH]2)c1
7. COCCN(Cc1ccco1)C(=O)c1cc2c(Cl)nc3ccccc3c2s1
8. O=C(CN1CCCC1)Nc1c2c(nc3ccccc13)N(c1ccccc1)CC2

[-8.55, -2.12, 62.1, -2.91, -1.86, 6.78, 3.88, 0.144]

---

Target: DPAP1 (Plasmodium falciparum)
Test: primary screen, percent inhibition; read by cleavage of a fluorogenic dipeptide substrate; higher = more effect of the substance
Design: species or system P. falciparum D10 trophozoite lysates; single well
Out of some 110,000 compounds screened, about 230 (0.21%) showed an effect of 50% or more. Many of the other results were omitted from the sample, so strong results are more common in it than they were.
So I've got a bunch of compounds here, and I need their % Inhibition @ 10 uM values.
Numbers only, in %.

Solved entries (count: 5):
COc1ccccc1CNC(=O)Nc1cn(CC(C)C)c(=O)c2ccccc12 : -4.21
O=C1C(Nc2cccc(Br)c2)=C(N2CCCCC2)C(=O)c2ccccc21 : 1.84
C#CCSc1nc(-c2ccccc2)cc(C(F)(F)F)c1C#N : -10.2
N=C1S/C(=C\c2c[nH]nc2-c2ccccc2)C(=O)N1c1nccs1 : 11.2
Nc1ncnc2c1nc(S(=O)(=O)O)n2Cc1ccccc1 : -1.69

Give measured % Inhibition @ 10 uM for every item shown.
1. CCOc1ccc(C(=O)CCN(C)CC(=O)O)cc1
2. COc1ccc(C2=NN3C(C2)c2cc(OC)ccc2OC3(C)C)cc1 (centres unmarked)
3. Sc1nnc2c(n1)[nH]c1ccccc12
4. O=[N+]([O-])c1ccc(S(=O)(=O)n2cnc3ccccc32)cc1
5. N#Cc1c(C(F)(F)F)cc(-c2ccccc2)nc1SCc1nc(N)nc(N2CCOCC2)n1

1. 89.9
2. 43.8
3. 38
4. 2.81
5. 5.18

Give measured % Inhibition @ 10 uM for every item shown.
1. COc1ccc(-c2cc(-c3ccccc3)nc(SCC(=O)N3CCOCC3)c2C#N)cc1
2. Cc1ccc(-c2csc(N)n2)cc1
3. CC(C)C[C@H](NC(=O)OCc1ccccc1)C(=O)NCC(=O)CN(Cc1ccco1)C(=O)OC(C)(C)C
4. CCc1nc2ccccc2c(NC(=O)CN2CCCC2)c1C

1. 5.24
2. 20.7
3. -7.36
4. -4.96

Give measured % Inhibition @ 10 uM for every item shown.
1. Cc1cc(C)c(S(=O)(=O)N2CCCc3ccccc32)c(C)c1
2. O=C(CCCC(=O)c1ccccc1)NC(c1ccccc1)c1ccccc1
3. COCCNC(=O)c1sc2ncn(CC(=O)N3CCC(C)CC3)c(=O)c2c1C

[1.83, -1.46, -2.17]

Give measured % Inhibition @ 10 uM for every item shown.
1. N#Cc1c(C(F)(F)F)cc(-c2cccs2)nc1SCc1nc(N)nc(N2CCOCC2)n1
2. CCOc1c(/C=C2/S/C(=N\c3ccccc3)N(C)C2=O)cccc1OC

1: 64.2; 2: 1.57

Give measured % Inhibition @ 10 uM for every item shown.
1. COc1ccc(C(=O)CCN(C)C)cc1
2. CCC(C)C(NCCC(=O)c1ccc(Br)cc1)C(=O)O (centres unmarked)
3. Cn1c2ccccc2c2nc3cc4ccccc4cc3nc21

[3.82, -7.23, -2.54]

Give measured % Inhibition @ 10 uM for every item shown.
1. N#Cc1c(C(F)(F)F)cc(-c2cccs2)nc1SCC(=O)N1CCCCC1
2. CC(C)Oc1ccccc1/C=C1\SC(=N)N(c2nccs2)C1=O
3. CCn1c(C(=O)N2CCC(C(=O)NCCOC)CC2)cc2sccc21
4. CCOc1ccc(C(=O)CCN(C)C)cc1
5. CC(C)n1c(-c2ccccc2)nc2ccccc21
6. C=CCc1cc(/C=C2/NC(=O)N(Cc3ccccc3F)C2=O)cc(OC)c1O
7. Cc1ccc2c(c1)c1c3n2CCN(Cc2ccccc2)C3CCC1 (centres unmarked)
8. COc1ccc(C2=NN3C(C2)c2cc(Cl)ccc2OC3(C)C)cc1 (centres unmarked)

1. 87
2. 50.1
3. 4.95
4. -1.25
5. -0.769
6. -2.63
7. 1.26
8. 50.9

Give measured % Inhibition @ 10 uM for every item shown.
1. N#Cc1c(C(F)(F)F)cc(-c2cccs2)nc1SCC(=O)NC1CC1
2. CCOC(=O)C1=C(c2ccccc2)Nc2ncnn2C1c1cccc(O)c1 (centres unmarked)
3. COc1ccc(C(=O)CCC(=O)NC2=NCCS2)cc1
4. COc1cc(/C=C2/NC(=O)N(Cc3ccccc3F)C2=O)cc(Br)c1O
5. COc1ccc(C2=NN3C(C2)c2cccc(OC)c2OC3(C)C)cc1 (centres unmarked)
6. Nc1ccc(NC2=C(N3CCCCC3)C(=O)c3ccccc3C2=O)cc1

1.76
3.8
-3.21
63
38.5
53.5

Give measured % Inhibition @ 10 uM for every item shown.
1. CCOc1ccc(C(=O)CCNC(C(=O)O)C(C)CC)cc1 (centres unmarked)
2. Cc1cccc(Nc2nc(-c3sc(N)nc3C)cs2)c1
3. N#Cc1c(C(F)(F)F)cc(-c2ccccc2)nc1S
4. COc1ccc(-c2noc(CCC(=O)NCc3cc(OC)ccc3OC)n2)cc1

[71, 2.7, 73.6, 0.675]
